Test: inhibitors of the yeast RAM network, primary screen, dse1pr::URA3 reporter, 5-FOA selection (AID 868);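 also: 0% = DMSO-only wells with no growth and 100% = 10 µM 1-NA-PP1 full growth; inhibition rescues growth on 5-FOA so higher OD means more RAM inhibition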
Conditions: S. cerevisiae dse1pr::URA3 reporter, 5-FOA growth OD615, 2 d; at 50 µM; stronger effect = higher value; analog-sensitive cbk1-as2 kinase mutant strain
The whole screen tested about 190,000 compounds, of which about 3,500 (1.8%) were called active. For the sample, actives were picked, then their nearest neighbours and some compounds at random.
experimental.endpoint: inhibition (%)
Response body: numeric value in %, unit text excluded.

Q: inhibition lookup needed for "COc1ccc(C)cc1NC(=O)Nc1ccccc1SC" , thanks.
A: 3.85

Q: For the compound shown here, "COc1ccc(-n2cnnc2SCC(=O)Nc2cccc([N+](=O)[O-])c2)cc1" , give the reported inhibition.
A: 1.48

Q: Record request: inhibition value, item "O=C(c1ccc(Cl)c([N+](=O)[O-])c1)N1CCN(c2ccccc2)CC1"
A: -1.05

Q: Any idea what inhibition was measured for "O=c1c([N+](=O)[O-])cccn1Cc1ccc(F)cc1Cl" ?
A: -0.54

Q: Return reported inhibition; argument: "CC(=O)Nc1ccc(Nc2nc3c(S(=O)(=O)c4ccc(C)c(C)c4)nnn3c3ccccc23)cc1"
A: 7.93

Q: // returns reported inhibition for input Cc1ccsc1C1C(C#N)=C(N)OC2=C1C(=O)CC(C)(C)C2 (centres undefined)
A: 1.24

Q: // query inhibition value for entry "O=C(COc1ccc(NC(=O)c2ccccc2[N+](=O)[O-])cc1)c1ccc(F)cc1"
A: 6.75

Q: May I ask what inhibition has been recorded for "CCOc1ccc(/C=N/Nc2nncc(-c3ccccc3)n2)cc1OC" ?
A: -0.12

Q: # input compound: O=C(CSc1ccc(-c2ccccc2)nn1)NCC1CCCO1 (centres undefined) ; wanted: its inhibition
A: 2.21

Q: Any idea what its inhibition is? The compound is "Fc1ccc(-c2nnc(CSc3nnc(-c4ccc5c(c4)OCO5)o3)o2)cc1"
A: 3.54

Q: Report inhibition for CC(C)(C)c1ccc(/C=C/C(=O)NC2CCS(=O)(=O)C2)cc1 (centres undefined) please.
A: -1.15

Q: Given the compound COC(=O)CCSc1cc([N+](=O)[O-])cc2c1c(C1OCCS1)nn2-c1ccccc1 (centres undefined) , what is its reported inhibition?
A: 17.6

Q: GET /values?readout=inhibition&item= "COC(=O)CCSc1nccn1Cc1ccccc1"
A: 3.09

Q: Suppose we examine the compound "COc1ccc(F)c(-c2nc(CN3CCC(c4ccccc4)CC3)c(C)o2)c1" ; what inhibition value has been reported?
A: 1.5

Q: # query: inhibition of entry CC12CN(NC(=O)c3ccc(Cl)cc3)C3(C#N)CC1CCC23C (centres undefined)
A: -0.13

Q: Item under review: "COc1ccc(C)cc1NC(=S)Nc1ccccc1SC" . Reported inhibition?
A: 0.14

Q: If you can, please state the reported inhibition value of OC1CSc2nc3ccccc3n2C1 (centres undefined) .
A: 0

Q: Recorded inhibition of "CCOc1cc(/C=N/O)cc(Br)c1OC" , please.
A: 0.34

Q: Endpoint output: inhibition of "COC(=O)N/N=C/c1ccc(/C=N/NC(=O)OC)cc1" . Value?
A: 1.05

Q: Request the reported inhibition associated with "O=C(COC(=O)c1ccc(Cl)nc1)NCc1cccs1"
A: 1

Q: If you can, please state the reported inhibition value of "COC(=O)c1sc(NC(=O)c2csc3c2CCCC3)nc1C" .
A: 3.89

Q: Field request: inhibition | item: "Cc1ccc(NC(=O)c2csc3c2CCCC3)cc1"
A: 0.75

Q: Entry "CCOc1c(Cl)cc(/C=N/O)cc1OC" : reported inhibition = ?
A: 2.16

Q: Give its inhibition value. Item: "COC(=O)c1sccc1NC(=O)c1csc2c1CCCC2"
A: 12

Taken from PubChem BioAssay AID868.
